# Target Or Test System: Carnitine palmitoyl transferase I liver isoform (Sus scrofa, UniProt Q9MYX2)
# Sequence (Q9MYX2 whole entry, canonical isoform): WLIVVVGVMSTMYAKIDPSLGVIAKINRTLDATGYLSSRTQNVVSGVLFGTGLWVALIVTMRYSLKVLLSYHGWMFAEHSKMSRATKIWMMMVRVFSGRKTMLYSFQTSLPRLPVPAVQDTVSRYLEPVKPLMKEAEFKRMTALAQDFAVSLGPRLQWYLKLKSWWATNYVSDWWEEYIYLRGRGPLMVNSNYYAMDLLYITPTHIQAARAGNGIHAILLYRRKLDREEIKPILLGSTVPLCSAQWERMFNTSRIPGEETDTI
# Test Description: ChEBML_44012
# Method: Compound was tested for its inhibitory activity against carnitine palmitoyl transferase-A (CPT-A)
Please note: IC50 exactly at 700 nM is F. Only values below 700 nM get T.

> print(dat)
                                   molecule  assigned.category
1    CCCCCCCCCCCCCCC1(C(=O)OC)CO1 (racemic)                  T
2  CCCCCCCCCCCCC1(C(=O)OC)CO1 (configuration not stated)                  T
3  CCCCCCCCCCCCCC1(C(=O)OC)CO1 (configuration not stated)                  T
4  CCCCCCC1(C(=O)OC)CO1 (configuration not stated)                  F
5  CCCCCCCCCCCCCCC1(C(=O)O)CO1 (configuration not stated)                  F
6  CCCCCCCCCCCC1(C(=O)OC)CO1 (configuration not stated)                  F
